Task for the reader: assign each of the following binders its reported Kd.
molecular target: T1, recombinant C-terminal ApoE fragment G200-HIS (ApoE-G200-H299-10xHIS) (human, UniProt P02649 218-317); assay: BLI (Octet RED384), G200-HIS captured on anti-HIS biosensor, antibody as analyte, 1:2 bivalent analyte fit
T1 construct: also called G200-HIS fragment
T1 sequence (P02649 other isoform, or with tags, fused parts or gaps limits assumed): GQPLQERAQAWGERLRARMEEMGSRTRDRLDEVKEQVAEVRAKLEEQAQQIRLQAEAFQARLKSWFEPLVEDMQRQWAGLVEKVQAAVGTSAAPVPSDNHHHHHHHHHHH
Numbers only; they are read as nM.

### Prompt Need Kd, item 17G4, recombinant IgG2c antibody (antibody, V domains shown) VH: EVQLVESGGGLVKPGGSLKLSCSASGFTFSRYAMSWVRQSPEKRLEWVAEINSGGSYSFYSDTVTGRFTISRDNAKNTLFLEMSSLRSEDTAIYYCARQLTGTDYYGTDYWGQGTSVTVSS VL: DVLMTQTPLSLPVSHGDQASISCRSSQSLLYSNGNTYLEWYLQKPGQSPKLLIYKVSNRFSGVPDRFSGSGSGTDFTLKISRVEAEDLGVYYCFQGSHVPYTFGGGTKLEIK
### Response 0.8

### Prompt Please give the result for 4E6, recombinant IgG2c antibody (antibody, V domains shown, also called recombinant anti-G200 antibody 4E6) VH: EVQLVESGGDLVKPGGSLKLSCAASGFTFSSYAMSWVRQSPEKRLEWVAEISGSGSRDHYTDSVTGRFTVSRDNAKNTLYLEMSSLRSEDTAIYYCARQLTGTDYYGTDYWGQGTSVTVSS VL: DVLMTQIPLSLPVSLGDQASISCRSSQSIVYSNGNTYLEWYLQRPGQSPKLLIYKVSNRFSGVPDRFSGSGSGTDFTLKISRVEAEDLGVYYCFQGSHLPYTFGGGTKLEIK too.
### Response 0.9

### Prompt Please give the result for 7C7, recombinant IgG2c antibody (antibody, V domains shown) VH: EVQLVESGGGLVKPGGSLRLSCAASGFTFSSFAMSWVRQSPERRLEWVAEISRGGGYAFYSDTVTGRFTISRDNARNTLFLEMGSLRSEDTAMYYCSRQLTGTDYYAMDYWGQGTSVTVSS VL: DVLLTQTPLSLFVSLGDQASISCRSSQSIVYTNGNTYLEWYLQKPGQSPKLLIYKVSNRFSGVPDRFSGSGSGTDFTLKISRVEAEDLGVYYCFQGSQVPYTFGGGTKLELK too.
### Response 1.9
